Study System: MYT1 protein (Homo sapiens (Human), UniProt Q99640)
Sequence (Q99640 whole entry): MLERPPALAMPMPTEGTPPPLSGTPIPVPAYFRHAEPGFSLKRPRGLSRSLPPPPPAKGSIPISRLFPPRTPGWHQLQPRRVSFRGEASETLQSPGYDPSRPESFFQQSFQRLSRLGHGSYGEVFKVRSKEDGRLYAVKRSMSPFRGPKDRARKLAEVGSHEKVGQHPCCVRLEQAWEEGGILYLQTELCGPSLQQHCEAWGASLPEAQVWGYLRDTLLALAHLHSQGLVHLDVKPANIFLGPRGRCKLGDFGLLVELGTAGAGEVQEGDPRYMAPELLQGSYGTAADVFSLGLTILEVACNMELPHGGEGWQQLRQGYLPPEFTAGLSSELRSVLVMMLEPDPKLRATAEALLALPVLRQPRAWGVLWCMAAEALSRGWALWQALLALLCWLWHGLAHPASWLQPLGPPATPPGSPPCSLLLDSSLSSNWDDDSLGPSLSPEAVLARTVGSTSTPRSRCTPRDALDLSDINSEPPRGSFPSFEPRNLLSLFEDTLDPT
Procedure Summary: Test for binding to ATP binding site of MYT1 (Kinase Tracer 178 / Eu-Anti-GST antibody TR-FRET)
Experimental Parameters: ATP binding site of MYT1, 30 minutes at room temperature
Readout Name: IC50 (nM)

[P] CC(C)Cc1cc2c(-c3cc(F)c(F)c4[nH]ncc34)c(N)c(=O)[nH]c2c2cccnc12
[Q] COc1cc2c(-c3ccc(Cl)c4[nH]ncc34)c(N)c(=O)[nH]c2c2cccnc12
[R] Nc1c(-c2cc(F)c(F)c3[nH]ncc23)c2cc(OCCC(F)F)c3ncccc3c2[nH]c1=O
[S] Nc1c(-c2cccc3[nH]ncc23)c2cc(Cl)c3ncccc3c2[nH]c1=O
## Input I would appreciate it if you could sort these 4 compounds by IC50, starting from the smallest number. # respond with the labels, arranged in the requested order
## Output Q, R, S, P
(Q: 0.83 nM, R: 1.7 nM, S: 11 nM, P: 17 nM)

These data points were gathered from patent US20260062412A1.
